Test system: UACC-62 melanoma
Test: NCI-60 one-dose screen, 48 h
Settings: 10 µM unless noted
About 83,000 compounds went through this panel and 20% of them were active in at least one assay; those are over-represented in the sample as a whole. Active and inactive are the calls of the source. How the source made its calls: active means growth percent below 10; inactive means the rest.
Outcomes: t for active, f for inactive

Molecule: COc1cc(Cc2cc(OC)c(O)c(OC)c2)cc(OC)c1O
Class Assignment: f
--
Molecule: Nc1ccc(-c2ccncc2)cc1NC(=O)N1CCCC1
Class Assignment: f
--
Molecule: CN1CC(c2ccc(Br)cc2)C(C(=O)c2ccc(Br)cc2)C12C(=O)Nc1ccccc12 (stereo not given)
Class Assignment: f
--
Molecule: CCOC(=O)C1=C(CC(O)c2ccc(OC)cc2OC)NC(=O)NC1c1ccccc1 (stereo not given)
Class Assignment: f
--
Molecule: CC(C)n1c2ccc(Br)cc2c2c3c(c4c5ccccc5ccc4c21)C(=O)NC3=O
Class Assignment: f
--
Molecule: CCN1C(=O)N(c2ccccc2)C2NC(=S)N(/N=C/C=C/c3ccccc3OC)C21 (stereo not given)
Class Assignment: f
--
Molecule: CN(C)c1ccc(CNCCO)cc1
Class Assignment: f
--
Molecule: OC1CSSC1Cn1cnc2c(Nc3ccc(OCc4cccc(F)c4)c(Cl)c3)ncnc21 (stereo not given)
Class Assignment: t
--
Molecule: COc1ccc(C=Nc2c(C(=O)Nc3cccc(Cl)c3C)sc3nc(C)c(C(=O)/C=C/c4ccc(OC)cc4)cc23)cc1
Class Assignment: t
--
Molecule: OC1(c2ccccc2)c2ccccc2N(c2ccccc2)c2ccc(Cl)cc21 (stereo not given)
Class Assignment: t
--
Molecule: O=C(Nc1cc(Cl)ccc1O)c1ccccc1Nc1ccnc(C(F)(F)F)c1
Class Assignment: f
--
Molecule: N#Cc1ccccc1-c1ccc(CN2C(=O)S/C(=C\c3ccc(Br)cc3)C2=O)cc1
Class Assignment: f
--
Molecule: O=C(CSc1nnnn1-c1ccccc1)Nc1ccc(Oc2ccccc2)cc1
Class Assignment: f
--
Molecule: Cc1ncc(C(=O)Nc2ccc(CN3CCN(C)CC3)c(C(F)(F)F)c2)cc1C#Cc1cnc(N)c2ccc(C#N)cc12
Class Assignment: t
--
Molecule: O=S(Nc1ccccc1)c1ccc(Cl)cc1 (stereo not given)
Class Assignment: f
--
Molecule: COC(=O)Cn1c2c(c3c(OC)cccc31)C(=O)c1ccccc1-2
Class Assignment: f
--
Molecule: c1csc(-c2cn3nc(-c4c[nH]c5ccccc45)sc3n2)c1
Class Assignment: f
--
Molecule: CC(=O)c1c(Nc2cccc(F)c2)[nH]c2c(Cl)cc(Cl)c(Cl)c2c1=O
Class Assignment: t
--
Molecule: CNC(=O)NCC1OC(n2cnc3c(NC(=O)Nc4ccccc4)ncnc32)C2OC(=O)CC12 (stereo not given)
Class Assignment: f
--
Molecule: CCOC(=O)C1=C(CCl)N(C)C(=O)NC1c1ccc2c(c1)OCO2 (stereo not given)
Class Assignment: f
--
Molecule: Cc1ccc2cnc(N)c(C#Cc3cc(C(=O)Nc4ccc(CN5CCN(C)CC5)c(C(F)(F)F)c4)cnc3C)c2c1
Class Assignment: t
--
Molecule: CN(C)c1ccc(/C=N\NC(=O)c2ccc3nc(-c4ccc(Cl)cc4)[nH]c3c2)cc1
Class Assignment: f
--
Molecule: CC1SC(c2ccccc2O)N(NC(=O)CCC(=O)c2nc3ncccc3[nH]2)C1=O (stereo not given)
Class Assignment: f
--
Molecule: O=c1oc2c(cnc3ccccc32)cc1-c1cccc(Cl)c1
Class Assignment: f
--
Molecule: COC(=O)/C=C1/SC(=NCc2ccccc2)N(CCc2c[nH]c3ccccc23)C1=O
Class Assignment: f
--
Molecule: O=c1cc(-c2ccccc2)nc(SCc2nc3cc(Cl)c(Cl)cc3[nH]2)[nH]1
Class Assignment: f
--
Molecule: C=C1C(=O)O[C@H]2[C@H]1CC/C(CNC(=O)Cc1c[nH]c3ccccc13)=C\CC[C@@]1(C)O[C@@H]21
Class Assignment: t
--
Molecule: CCOC(=O)C1=C(c2ccccc2)N=C2N(c3ccccc3)N=C(C(C)=O)N2C1c1ccc(F)cc1 (stereo not given)
Class Assignment: f
--
Molecule: CSc1nc2ccc(C)cc2cc1/C=C1/C=C(c2ccccc2)NC1=O
Class Assignment: f
--
Molecule: CC12OC(CC(O)C1O)n1c3ccccc3c3c4c(c5c6ccccc6n2c5c31)C(=O)N(CCN1CCCC1)C4=O (stereo not given)
Class Assignment: f
--
Molecule: C[C@@H]1CN(c2cnc(C(=O)Nc3cc(F)cc4cccnc34)cn2)C[C@H](C)N1
Class Assignment: f
--
Molecule: COc1cc(N2C(=O)[C@H](Cl)C2c2ccc(SC)cc2)cc(OC)c1OC (stereo not given in full)
Class Assignment: f
--
Molecule: COc1cccc(-c2cn3nc(-c4cn(C)c5ccccc45)sc3n2)c1
Class Assignment: f
--
Molecule: CCCCC#Cc1c(I)n(C2OC(CO[Si](C)(C)C(C)(C)C)C3OC(C)(C)OC32)c(=O)n(C(=O)c2ccccc2)c1=O (stereo not given)
Class Assignment: f
--
Molecule: Cc1cc(Cl)nc(N2CCN(CCNc3ccnc4cc(Cl)ccc34)CC2)n1
Class Assignment: f
--
Molecule: Cc1sc2nc(NCCN)[nH]c(=O)c2c1C
Class Assignment: f
--
Molecule: CCN1C2CCC1/C(=C\c1ccccc1)C(=O)/C2=C/c1ccccc1
Class Assignment: f
--
Molecule: COc1ccc(-c2cc(C(=O)N3N=C(c4ccc(N)cc4)CC3c3ccc(Cl)cc3)c3cc(OC)ccc3n2)cc1 (stereo not given)
Class Assignment: f
--
Molecule: Nc1c(Br)cc2c(c1Br)Cc1cc([N+](=O)[O-])ccc1-2
Class Assignment: f
--
Molecule: CN1CCN(c2ccc(NC3=CC(=O)c4ncncc4C3=O)cc2)CC1
Class Assignment: t
